Cited source for all entries: paper PMC9323974

Would you mind telling me the reported EB-DNA relative fluorescence emission intensity, % of the initial of each entry?
- System: EB-DNA adduct (CT DNA)
- method-notes: EB-displacement from EB-DNA (fluorescence)
- Assay type: binding, calf
- condition-label: λemission = 592 nm, final value
Give your result in % as a bare value.

Using known records, supply EB-DNA relative fluorescence emission intensity, % of the initial for O=Cc1cc(Br)cc(Br)c1[O][Pd][O]c1c(Br)cc(Br)cc1C=O [Complex 2, [Pd(3,5-diBr-salo)2]] 35.2

Using known records, supply EB-DNA relative fluorescence emission intensity, % of the initial for COc1ccc(C=O)c([O-])c1.COc1ccc(C=O)c([O-])c1.[Pd+2] [Complex 5, [Pd(4-OMe-salo)2]] 55.8

Using known records, supply EB-DNA relative fluorescence emission intensity, % of the initial for O=Cc1cc(F)ccc1[O-].O=Cc1cc(F)ccc1[O-].[Pd+2] [Complex 4, [Pd(5-F-salo)2]] 48.6

Using known records, supply EB-DNA relative fluorescence emission intensity, % of the initial for CCN(CC)c1ccc(C=O)c([O][Pd][O]c2cc(N(CC)CC)ccc2C=O)c1 [Complex 1, [Pd(4-Et2N-salo)2]] 48.8

Using known records, supply EB-DNA relative fluorescence emission intensity, % of the initial for O=Cc1cc(Cl)cc(Cl)c1[O-].O=Cc1cc(Cl)cc(Cl)c1[O-].[Pd+2] [Complex 3, [Pd(3,5-diCl-salo)2]] 39.4

---

- System: EB-DNA adduct (CT DNA)
- method-notes: EB-displacement from EB-DNA (fluorescence)
- Type: binding, calf
- condition-label: [EB] = 20 μM, [DNA] = 26 μM
recorded-metric: ΔΙ/Ι0 (%) EB-DNA fluorescence quenching
Give your result in % as a bare value.

Recall the reported ΔΙ/Ι0 (%) EB-DNA fluorescence quenching of CCN(CC)c1ccc(C=O)c(O)c1 [4-Et2N-saloH, 4-diethylamino-salicylaldehyde, reference compound] when tested on EB-DNA adduct (CT DNA). 43.4

Recall the reported ΔΙ/Ι0 (%) EB-DNA fluorescence quenching of O=Cc1cc(F)ccc1[O-].O=Cc1cc(F)ccc1[O-].[Pd+2] [Complex 4, [Pd(5-F-salo)2]] when tested on EB-DNA adduct (CT DNA). 51.4

Recall the reported ΔΙ/Ι0 (%) EB-DNA fluorescence quenching of O=Cc1cc(Cl)cc(Cl)c1[O-].O=Cc1cc(Cl)cc(Cl)c1[O-].[Pd+2] [Complex 3, [Pd(3,5-diCl-salo)2]] when tested on EB-DNA adduct (CT DNA). 60.6

Recall the reported ΔΙ/Ι0 (%) EB-DNA fluorescence quenching of O=Cc1cc(F)ccc1O [5-F-saloH, 5-fluoro-salicylaldehyde, reference compound] when tested on EB-DNA adduct (CT DNA). 51.3

Recall the reported ΔΙ/Ι0 (%) EB-DNA fluorescence quenching of CCN(CC)c1ccc(C=O)c([O][Pd][O]c2cc(N(CC)CC)ccc2C=O)c1 [Complex 1, [Pd(4-Et2N-salo)2]] when tested on EB-DNA adduct (CT DNA). 51.2

Recall the reported ΔΙ/Ι0 (%) EB-DNA fluorescence quenching of COc1ccc(C=O)c([O-])c1.COc1ccc(C=O)c([O-])c1.[Pd+2] [Complex 5, [Pd(4-OMe-salo)2]] when tested on EB-DNA adduct (CT DNA). 44.2

Recall the reported ΔΙ/Ι0 (%) EB-DNA fluorescence quenching of O=Cc1cc(Br)cc(Br)c1[O][Pd][O]c1c(Br)cc(Br)cc1C=O [Complex 2, [Pd(3,5-diBr-salo)2]] when tested on EB-DNA adduct (CT DNA). 64.8
